System: RPMI-8226 leukemia
Assay: NCI-60 one-dose screen, 48 h (100 = growth as untreated, 0 = no growth, -100 = all killed)
Conditions: 10 µM unless noted
The panel holds about 83,000 compounds, 20% with a hit somewhere; the sample as a whole holds those more often.
Here the recorded growth is given for each entry.
Field: numeric (%). Do not append units.

Molecule	growth, %
C/C(=N\NC(=O)CSc1nc2sc3c(c2c(=O)n1-c1ccccc1)CCC(C)C3)c1ccc(Cl)cc1 (stereo not given)	24.9
N#C/C(=C\c1ccc(Cl)cc1Cl)C(N)=O	111

Field request: growth | item: O=c1cc(-c2ccccc2)nc2sc(-c3c[nH]c4ccc(F)cc34)nn12
71.9

Quick check: growth of CCOC(=O)c1ccc(N/C=C/C(=O)c2ccccc2)cc1 ?
100

Requested field: growth. Item: C/C=C/[C@@H]1C=C[C@@H]2C[C@H](C)CC[C@H]2[C@]1(C)/C(O)=C1/C(=O)[C@H](CO)N(C)C1=O
36.5

* * *

Test system: UACC-257 melanoma
Experiment: NCI-60 one-dose screen, 48 h
Conditions: 10 µM
About 83,000 compounds went through this panel and 20% of them were active in at least one assay; those are over-represented in the sample as a whole. Active and inactive are the calls of the source. The calls were made as follows: active = growth percent below 10; inactive = the rest.
Field 'call' accepts active, inactive

Examples from the recorded data:
Molecule	Class Name
COc1ccc(Oc2ccc(C3CC(c4cc(OC)c(OC)c(OC)c4)=NN3C(C)=O)cc2)cc1 (configuration not stated)	inactive
CCN(CC)c1ccc2cc(C(=O)NCCOCCOCCOCCn3cc(CCC(=O)Nc4ccc(C(=O)c5ccc(NC(=O)OC(C)(C)C)cc5)cc4)nn3)c(=O)oc2c1	inactive
N#C/C(=C\c1ccc2ccccc2c1)C(=O)Nc1sc2c(c1C#N)CCC2	inactive

Which outcome did this test record for the molecule CCOc1ccc2nc(NC(=O)Nc3ccccc3C)sc2c1 ?
inactive

What did the test return for CCc1ccc(NC(=O)N[C@@H](Cc2cc(F)cc(F)c2)C(=O)N[C@@H]2C(=O)N3CCC[C@H]3C(=O)N3CCO[C@H](C)[C@H]3C(=O)N[C@@H](CO)C(=O)N3C[C@H](C)C[C@H]3C(=O)O[C@H]2C)c(F)c1 ?
inactive

Please state the recorded outcome for this molecule: Fc1ccccc1/C=C(/C1=NCCN1)n1cnc2ccccc21
inactive

Tell me the recorded outcome of this test for Cc1cc2nc(C(Cl)Cl)nc(-c3ccco3)n2n1 .
inactive

I would be grateful if you could indicate the recorded call for CN(c1ccc(Cl)cc1)S(=O)(=O)c1ccc(-c2cnc(C3CC3)o2)cc1 .
inactive

What classification did CC(=O)C1=NN(c2ccc(Cl)cc2)C(=O)CN1C end up with in this test?
inactive

Short answer needed: outcome of this test for O=C1c2c(c3c4cc(O)ccc4oc3c3[nH]c4ccccc4c23)C(=O)N1O ?
inactive

Entry N/C(=N\c1nc2c(Cl)cccc2s1)C(Cl)(Cl)Cl : call = ?
inactive

Could you kindly confirm the outcome this assay logged for COC(=O)c1nc(-c2ccc(C)cc2)oc1S(=O)(=O)N1CCN(c2oc(-c3ccccc3)nc2C#N)CC1 ?
inactive

Hi, do you know how CN(C)c1ncc(/C=C2\SC(=S)N(Cc3ccccc3Cl)C2=O)s1 came out in this test?
inactive

Per the assay record, what outcome was assigned to COc1ccc(-c2nc3cc(Cl)c(Cl)cc3n2CC(=O)N=Nc2c(O)[nH]c3ccc(Cl)cc23)cc1 ?
inactive

Name the outcome recorded for CC(C)N=C(N/C(N)=N/c1nc2ccccc2s1)NC(C)C in the assay.
inactive

* * *

System: LOX IMVI melanoma
Experiment: NCI-60 one-dose screen, 48 h
Details: 10 µM unless noted
The panel holds about 83,000 compounds, 20% with a hit somewhere; the sample as a whole holds those more often. Activity calls are given as the source filed them. The calls were made as follows: active = growth percent below 10; inactive = the rest.
Lab note: assign the record to one of label 1 = active, label 0 = inactive

Structure Smiles	System	Class Name
COc1ccc(-c2nc3cc(Cl)c(Cl)cc3n2CC(=O)N=Nc2c(O)[nH]c3ccccc23)cc1	LOX IMVI melanoma	label 1
Nc1cc(F)ccc1NC(=O)c1ccc(NC(=O)C/C=C/c2cccnc2)cn1	LOX IMVI melanoma	label 0
O=C(C[n+]1ccnc2ccccc21)c1ccc(O)c(O)c1	LOX IMVI melanoma	label 1

Each compound tested received a call. Report the one for Oc1ccc(CSc2nnc(-c3ccccc3)n2-c2ccccc2)c2cccnc12 .
label 1

I'd appreciate the recorded outcome for N/C(=N\c1nc2c(Cl)cccc2s1)C(Cl)(Cl)Cl from this test.
label 0

* * *

System: U251 CNS
Experiment: NCI-60 one-dose screen, 48 h (100 = growth as untreated, 0 = no growth, -100 = all killed)
Settings: 10 µM unless noted
About 83,000 compounds went through this panel and 20% of them were active in at least one assay; those are over-represented in the sample as a whole.
Property Measured: growth (%)
Please reply with the bare figure in % and do not write the unit itself.

Look over these answered cases.
Structure Smiles	growth, %
Cc1ccc(/C=C/CC(=O)Nc2ccc(C(=O)Nc3ccc(F)cc3N)nc2)cn1	44.9
NC(=O)c1c(NC(=O)c2cccc(C(F)(F)F)c2F)sc2c1CCC(=O)C2	15.9
CC(C)c1nn(-c2ccccc2)c(N2CCCCC2)c1/C=N/NC(N)=S	97.9
CCNCCCn1c2c(c3cc(OC)c(OC)cc3c1=O)C(=O)c1cc(OC)cnc1-2	-16.1

From here, focus on the item given below.
What does the data say about its growth? Entry: C(=C(\C1=NCCN1)n1cnc2ccccc21)/c1ccc2ccccc2c1
87.3

* * *

Test system: UACC-62 melanoma
Assay: NCI-60 one-dose screen, 48 h
Settings: 10 µM unless noted
The panel holds about 83,000 compounds, 20% with a hit somewhere; the sample as a whole holds those more often. Calls of active or inactive are those of the source. Rule for the calls: active = growth percent below 10; inactive = the rest.
Would you mind answering with one of these outcomes? active, inactive

Some solved cases for reference:
Compound	System	Class Name
CN(C)C(=O)c1ccccc1-n1cnc2ccccc2c1=O	UACC-62 melanoma	inactive
CS(=O)(=O)c1ccc(-c2nn(-c3ccccc3)cc2/C=N/NC(=O)c2ccncc2)cc1	UACC-62 melanoma	inactive
CCCCCCCCCC[C@@H](C)[C@@H]1CC(=O)N[C@H]([C@@H](C)O)C(=O)N[C@@H](C)C(=O)N[C@H](C)C(=O)N[C@@H](CCC(N)=O)C(=O)N[C@H](Cc2ccc(O)cc2)C(=O)N[C@@H](C(C)CC)C(=O)O1 (stereo partly specified)	UACC-62 melanoma	inactive
COCCC[C@H]1O[C@@](O)([C@H](C)[C@@H]2CC(OC)C(O)/C=C(C)/C=C(C)/C=C(\C)C(OC3O[C@@H](C)[C@H](O)C(O)[C@@H]3O)C(C)/C=C(C)/C=C(OC)/C=C(\C)C(=O)O2)C(OC)C(O)[C@]1(C)O[C@H]1C[C@@H](O)[C@H](O[C@H]2C[C@](C)(O)[C@H](O)C(C)O2)C(C)O1 (stereo partly specified)	UACC-62 melanoma	inactive
Nc1cc(F)ccc1NC(=O)c1ccc(NC(=O)C/C=C/c2cccnc2)cn1	UACC-62 melanoma	active
O=c1[nH]c2cc(Cl)ccc2n1C1CCN(c2ccc3nnc(Cl)n3n2)CC1	UACC-62 melanoma	inactive

How was O=C(NNc1nc2cc(F)cc(F)c2n2cccc12)c1ncccn1 classified in this test?
active

So what was the verdict on COc1ccc([C@@H]2[C@@H](O)C(=O)N2c2cc(OC)c(OC)c(OC)c2)cc1Cl in this test?
inactive

Given O=C(CCCCCCN1CC(=O)N2[C@@H](c3cccc(Cl)c3)c3[nH]c4ccccc4c3C[C@H]2C1=O)NO , state the outcome it received in this test.
inactive

What was the test verdict on CS(=O)(=O)c1ccc2c(c1)c1c(n2S(=O)(=O)c2ccc(Cl)cc2)CCCC1 ?
inactive

# outcome recorded in this test, key = O=C(CN1CCN(c2cc(=O)n(-c3ccccc3)c3ccccc23)CC1)Nc1ccc([N+](=O)[O-])cc1
inactive

* * *

System: MOLT-4 leukemia
Assay: NCI-60 one-dose screen, 48 h (100 = growth as untreated, 0 = no growth, -100 = all killed)
Conditions: 10 µM unless noted
Compounds without any hit were thinned out: in the full panel of roughly 83,000, 20% have a hit.
Property Measured: growth (%)
Quick reminder: number only, in %, skip the unit.

A selection of reference data follows.
Molecule	Value Units	growth
CS(=O)c1nccc(-c2c(-c3ccc(F)c(OCCc4ccc(F)cc4)c3)nc3sccn23)n1 (stereo not drawn)	%	9.78
O=C1/C(=C/c2ccccc2[N+](=O)[O-])Oc2ccc(O)cc21	%	6.41
CCc1ccc(NC(=O)N[C@@H](Cc2cccc(F)c2)C(=O)N[C@@H]2C(=O)N3CCC[C@H]3C(=O)N3CCCC[C@H]3C(=O)N[C@@H](CO)C(=O)N3C[C@H](C)C[C@H]3C(=O)O[C@H]2C)c(F)c1	%	39.3
COc1ccc(/C=C/C(=O)c2nnn(-c3ccc(Br)cc3)c2C)cc1OC	%	78.4

Field request: growth | item: COc1ccc(-c2nnc(SCc3ccc(O)c4ncccc34)o2)cc1
28.1

I am curious: what growth value has been reported for Oc1ccc(CSc2nnc(-c3ccc(Br)cc3)o2)c2cccnc12 ?
24.1

What growth value was documented for this molecule, CN1CCN(Cc2ccc(NC(=O)c3cncc(C#Cc4cnc5ccc(O[C@H]6CCOC6)nn45)c3)cc2C(F)(F)F)CC1 ?
-1.92

For C#C[C@]1(O)CC[C@H]2[C@@H]3CC=C4c5sc(-c6ccccn6)nc5CC[C@]4(C)[C@H]3CC[C@@]21C , what is its reported growth?
21.7
